Species: Rattus norvegicus
protocol-notes: Open TG-GATES - Regimen: Daily Repeat
Assay type: toxicity, organism-based, Sprague-Dawley
Parameters: regimen Daily Repeat, gender Male, age 6 weeks
condition-description: in vivo, po, 0 mg/kg, […], tissue Plasma, route gavage, dose level Control, time 14 day
# RALB listing for each entry below
Just the number please, in g/dL, no unit attached.

compound	endpoint-label	experimental-value
Cn1c(=O)c2[nH]cnc2n(C)c1=O.O	RALB	3.1
CN(C)CCC=C1c2ccccc2CCc2ccccc21	RALB	2.7
CCc1cc(C(N)=S)ccn1 [ETHIONAMIDE]	RALB	4.1
CCCC(CCC)C(=O)O	RALB	3.5
NC(=O)N1c2ccccc2C=Cc2ccccc21 [CARBAMAZEPINE]	RALB	3.5
Clc1ccccc1CN1CCc2sccc2C1	RALB	3.4
O=C(O)c1cn(C2CC2)c2cc(N3CCNCC3)c(F)cc2c1=O	RALB	4.1
NC(=O)N/N=C/c1ccc([N+](=O)[O-])o1	RALB	2.6
CO[C@H]1/C=C/O[C@@]2(C)Oc3c(C)c(O)c4c(O)c(c(/C=N/N5CCN(C)CC5)c(O)c4c3C2=O)NC(=O)/C(C)=C\C=C\[C@H](C)[C@H](O)[C@@H](C)[C@@H](O)[C@@H](C)[C@H](OC(C)=O)[C@@H]1C	RALB	3.9
COc1ccc2c(c1)c(CC(=O)O)c(C)n2C(=O)c1ccc(Cl)cc1	RALB	3.9

Lab note: `CC(=O)Oc1ccccc1C(=O)O` gave RALB of 3.3

Lab note: `COc1ccc(Cc2nccc3cc(OC)c(OC)cc23)cc1OC` gave RALB of 3

Lab note: `C[C@H](CS)C(=O)N1CCC[C@H]1C(=O)O` gave RALB of 3.9

Lab note: `O=C(O)c1cc(/N=N/c2ccc(S(=O)(=O)Nc3ccccn3)cc2)ccc1O` gave RALB of 3.3

Lab note: CSc1ccc2c(c1)N(CCC1CCCCN1C)c1ccccc1S2 (stereo not given) gave RALB of 4.1
